Just for reference, patent US20250236663A1 is where these values come from.

Molecular target: Recombinant human FAM19A5 protein (His-tagged) (human) (UniProt Q7Z5A7)
Assay: ELISA, N'-Term His
Design: unit not given here
Quick reference: Bmax of the listed items.
MEASURED_PARAMETER: Bmax

{"columns": ["BINDER", "NUMERIC_VALUE"],
 "data": [
  ["Anti-FAM19A5 (P2-F11) (antibody, V domains shown) VH: QEQLVESGGRLVTPGTTLTLTCTVSGFSLSSYGVSWVRQAPGKGLEWIGYIANNYNPHYASWAKGRFTISKTSSTTVDLKMTSLTTEDTATYFCARDNYGMDPWGPGTLVTVSS VL: ELDLTQTPSSVSAAVGGTVTINCQASQSVYNNKNLAWYQQKPGQPPKLLIYAASTLASGVSSRFKGSGSGTQFTLTISDVQCDDAATYYCQGEFSCSSADCNAFGGGTELEIL", 3.26],
  ["Anti-FAM19A5 (P1-A08) (antibody, V domains shown) VH: QSLEESGGRLVTPGTPLTLTCTASGFSLSTYYMSWVRQAPGKGLEWIGIVYPSGTTYYANWAKGRFTISTASTTVDLMITSPTTEDTATYFCARGDSFGYGLWGPGTLVTVSS VL: ELVLTQSPSVQVNLGQTVSLTCTADTLSRSYASWYQQKPGQAPVLLIYRDTSRPSGVPDRFSGSSSGNTATLTISGAQAGDEADYYCATSDGSGSNYQYVFGGGTQLTVT", 0.479],
  ["Anti-FAM19A5 (P2-A01) (antibody, V domains shown) VH: QEQLVESGGRLVTPGTPLTLSCTASGFFLSGYYMSWVRQAPGKGLEWIGIIYPSGSTDYASWAKGRFTISKTSTTVDLKITTPTTEDTATYFCARVAGYVGYGYETFFDIWGPGTLVTVSL VL: ELVMTQTPPSLSASVGETVRIRCLASEDIYSGISWYQQKPGKPPTLLIYGASNLESGVPPRFSGSGSGSDYTLTIGGVQAEDAATYYCLGGVTYSSTGTHLTFGAGTNVEIK", 1.19]
]}
